- target_entity: His-Tau40P301L Tau (UniProt P10636-8 1-441)
- Sequence (P10636 other isoform, or with tags, fused parts or gaps limits assumed): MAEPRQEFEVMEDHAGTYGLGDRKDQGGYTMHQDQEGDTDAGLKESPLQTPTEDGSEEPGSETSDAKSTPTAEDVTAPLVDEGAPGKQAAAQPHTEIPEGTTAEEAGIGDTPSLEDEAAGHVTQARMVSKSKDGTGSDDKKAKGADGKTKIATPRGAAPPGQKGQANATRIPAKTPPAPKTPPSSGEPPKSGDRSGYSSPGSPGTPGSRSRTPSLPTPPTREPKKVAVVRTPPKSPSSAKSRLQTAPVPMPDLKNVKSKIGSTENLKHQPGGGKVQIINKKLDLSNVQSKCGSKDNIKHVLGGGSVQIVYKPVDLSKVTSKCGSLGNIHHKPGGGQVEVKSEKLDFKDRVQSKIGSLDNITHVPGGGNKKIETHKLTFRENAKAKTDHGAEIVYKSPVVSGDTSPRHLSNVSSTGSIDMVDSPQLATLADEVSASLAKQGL
- test_summary: cell-based or functional assay
Square brackets hold non-standard residues; d marks the D form. Ends that are not written are not given here. NMeI = CC[C@H](C)[C@H](NC)C(=O)O
# IC50 (µM), Tau40 assay (ThT) per entry
Remember to put the unit after the number in your answer.

Below: 3 binders and their reported IC50 (µM), Tau40 assay (ThT).
[[record]]
binder = "LRIRIRW"
result = "2.07 µM"

[[record]]
binder = "RIRIRWW"
result = "4.57 µM"

[[record]]
binder = "WRLKVRWW"
result = "1.24 µM"


Input LRIWIRYW . Output IC50 (µM), Tau40 assay (ThT): 1.71 µM

IC50 (µM), Tau40 assay (ThT) reported for this binder WRIHIRYW : 3.76 µM

Documented IC50 (µM), Tau40 assay (ThT) of HWWIRIRYW : 3.11 µM

Field IC50 (µM), Tau40 assay (ThT) (entry WR[NMeI]RIRW [WR(NMe)IRIRW] ) reads 1.48 µM

FRIWIRYF yielded IC50 (µM), Tau40 assay (ThT) of 4 µM
